From: patent US10106501B2

This section presents molecules with their documented IC50 values.
molecular target: chimeric human RORγ-Gal4 receptor (Homo sapiens, UniProt P51449); assay: transient transactivation assay (RORγ-Gal4 luciferase reporter); assay type: cell-based; conditions: Cos-7 cells transfected with RORγ-Gal4 and 5Gal4 pGL3 TK Luc reporter; overnight incubation; T0901317 at 10^-5 M as reference; read-out: IC50
Sequence (P51449 269-508 limits assumed, change not shown): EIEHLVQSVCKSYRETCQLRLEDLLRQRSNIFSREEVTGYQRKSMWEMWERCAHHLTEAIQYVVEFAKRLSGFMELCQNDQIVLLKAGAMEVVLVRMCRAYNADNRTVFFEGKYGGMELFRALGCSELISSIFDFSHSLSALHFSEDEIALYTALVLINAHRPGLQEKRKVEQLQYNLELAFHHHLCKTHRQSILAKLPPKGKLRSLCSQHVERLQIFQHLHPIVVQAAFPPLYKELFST

Example results:
| chemical string | IC50 |
| --- | --- |
| Cc1cc(C(F)(F)F)cc2c1cc(Cc1c(Cl)ccc(C(=O)N3CCC(CCC(=O)O)CC3)c1Cl)n2C | < 100 nM |
| COCCC1CCN(C(=O)c2ccc(Cl)c(Cc3nc4c(C)cc(C(F)(F)F)cc4n3C)c2Cl)CC1 | < 100 nM |
| Cc1cc(C(F)(F)F)cc2c1nc(Cc1c(Cl)ccc(C(=O)N3CCN(C4COC4)CC3)c1Cl)n2C | 100 to 500 nM |
| Cc1cc(C(F)(F)F)nc2c1cc(Cc1c(Cl)ncc(C(=O)N3CCC(O)CC3)c1Cl)n2C | < 100 nM |
| Cc1cc(C(F)(F)F)cc2c1nc(Cc1c(Cl)ccc(C(=O)N3CCC(C(C)(C)CO)CC3)c1Cl)n2C | < 100 nM |

Find IC50 (chimeric human RORγ-Gal4 receptor (Homo sapiens, UniProt P51449)) for the entry `Cc1cc(C(F)(F)F)cc2c1cc(C(=O)c1c(Cl)ccc(C(=O)N3CCC(C4COC4)CC3)c1Cl)n2C`
< 100 nM

Could you share what IC50 was measured for `Cc1cc(C(F)(F)F)cc2c1cc(Cc1c(Cl)cn(CCC(=O)O)c(=O)c1Cl)n2C` , tested on chimeric human RORγ-Gal4 receptor (Homo sapiens, UniProt P51449)?
1000 to 10000 nM

Look up IC50 with chimeric human RORγ-Gal4 receptor (Homo sapiens, UniProt P51449) for this molecule: `Cn1c(C(=O)c2c(Cl)ccc(C(=O)N3CCC(CC(=O)O)CC3)c2Cl)cc2ccc(OC(F)(F)F)cc21`
< 100 nM

Missing value: IC50, chimeric human RORγ-Gal4 receptor (Homo sapiens, UniProt P51449), entry `Cn1c(Cc2c(Cl)ccc(C(=O)N3CCC(CO)CC3)c2Cl)cc2ccc(C(F)(F)F)cc21` . Fill in?
100 to 500 nM

What is its IC50 for chimeric human RORγ-Gal4 receptor (Homo sapiens, UniProt P51449)? Entry: `Cc1cn(Cc2c(Cl)cnc(C(=O)N3CCC(CC(=O)O)CC3)c2Cl)c2c(C)cc(C(F)(F)F)cc12`
< 100 nM
